The values you see were collected from patent US20250027068.

Biological target: pooled human IgG
Please go through the items and note down their Enzyme Activity Endpoint Assay: Fab′2.
Give the value; after it, write the unit.

{"columns": ["protein", "result"],
 "data": [
  ["PRT-31 (protein) MANQEIRYSEVTPYHVTSVWTKGVTPPANFTQGEDVFHAPYVANQGWYDITKTFNGKDDLLCGAATAGNMLHWWFDQNKDQIERYLEEHPEKQKINFNGEQMFDVKEAIDTKNHQLDSKLFEYFKEKAFPYLSTKHLGVFPDHVIDMFINGYRLSLTNHGPTPVKEGSKDPRGGIFDAVFTRGDQSKLLTSRHDFKEKNLKEISDLIKKELTEGKALGLSHTYANVRINHVINLWGADFDSNGNLKAIYVTDSDSNASIGMKKYFVGVNSAGKVAISAKEIKEDNIGAQVLGLFTLSTGQDSWNQTN", "46 ng/µL"],
  ["PRT-10 (protein) MANQEIRYSEVTPYTVTSVWTKGVTPPANFTQGEDVFHAPYVANQGWYDITKTFNGKDDLLCGAATAGNMLHWWFDQNKEQIERYLKEHPEKQKINFNGEQMFDVKEAIDTKDSQLDSELFEYFKEKAFPYLSTKHLGVFPDHVIDMFINGYRLSLTNHGPTPVKEGSKDPRGGIFDAVFTRGDQSKLLTSRHDFKEKTLKEISDLIKKELTEGKALALSHTYANVRINHVINLWGADFDSEGNLEAIYVTDSDSNASIGMKKYFVGVNSAGKVAISAKEIEDDNIGAQVLGLFTLSTGQDIWNQTN", "2 ng/µL"],
  ["PRT-36 (protein) MANQEIRYSEVTPYHVTSVWTKGVTPPANFTQGEDVFHAPYVANQGWYDITKTFNGKDDLLCGAATAGNMLHWWFDQNKDQIKRYLEEHPEKQKINFNGEQMFDVKEAIDTKNHQTDSKLFEYFKEKAFPYLSTKHLGVFPDHVIDMFINGYRLSLTNHGPTPVKEGSKDPRGGIFDAVFTRGDQSKLLTSRHDFKEKNLKEISDLIKKELTEGKALGLSHTYANVRINHVINLWGADFDSNGNLKAIYVTDSDSNASIGMKKYFVGVNSAGKVAISAKEIKEDNIGAQVLGLFTLSTGQDSWNQTN", "48 ng/µL"]
]}

[ask] What does the record list as Enzyme Activity Endpoint Assay: Fab′2 for PRT-16 (protein) MANQEIRYSEETPYHITSVWTKGVTPPTDFTQGEDVFHAPYVANQGWYDITKTFNGKDDLLCGAATAGNMLHWWFDQNKDQIERYLKKHPEKQKINFNGEQMFDVKEAIDTKDSQTDSKLFEYFKDKAFPYLSTKHLGVFPDHVLDMFINGYRLNLTNHGPTPVKEGSKDPRGGIFDAVFTRGDQSKLLTSRHDFKEKNLKEISDLIKQELQEGKALGLSHTYANVRINHVINLWGADFDSNGNLKAIYVTDSDSNASIGMKKYYVGVNAAGKVAISAKEIEEDNIGAQVLGLFTLSLGQDIWNQTN ?
[reply] 0 ng/µL
